All values here come from PubChem BioAssay (NCI).

# experimental_details: NCI Yeast Anticancer Drug Screen. Data for the sgs1 mgt1 strain (AID 161)
# measurement_parameters: S. cerevisiae sgs1 mgt1 strain, at 50.0 µM (retest, dose inferred, filed as 5.0)
The panel holds about 79,000 compounds, 15% with a hit somewhere; the sample as a whole holds those more often. Calls of active or inactive are those of the source. Rule as the data show it: active = growth inhibition above about 70%; inactive = the rest.
Outcome (select one): Yes = active, No = inactive

Prompt: Just curious, what result did CCOC(=O)CCCCCN get here?
Response: No

Prompt: Just curious, what result did COC(=O)C1CCC(=O)N1C(c1ccc(OC)cc1)c1cc(OC)c(OC)c(OC)c1 (centres undefined) get here?
Response: No

Prompt: Just curious, what result did COc1ncc(Br)cc1C(=O)NCCc1ccc(S(=O)(=O)NC(=O)NC2CCCCC2)cc1 get here?
Response: Yes

Prompt: Just curious, what result did O=C1OC2=C(CCc3nc(-c4ccccc4)sc32)C(N(c2ccccc2)c2ccccc2)C1(Cl)Cl (centres undefined) get here?
Response: No

Prompt: Just curious, what result did CCC(CO)Nc1nc2ccc(Br)cc2c2ccccc12 (centres undefined) get here?
Response: Yes

Prompt: Just curious, what result did COc1ccc(C(=O)C(c2ccc(OC)cc2)C2(O)C(=O)Nc3c(Cl)cc(Cl)cc32)cc1 (centres undefined) get here?
Response: No

Prompt: Just curious, what result did O=C1OS(=O)(=O)c2cc3c(cc21)C1C(C2C3C3(Cl)C(Cl)=C(Cl)C2(Cl)C3(Cl)Cl)C2(Cl)C(Cl)=C(Cl)C1(Cl)C2(Cl)Cl (centres undefined) get here?
Response: Yes

Prompt: Just curious, what result did CC(C)C(O)C(C)C get here?
Response: No

Prompt: Just curious, what result did CCCCCCCCCCCCSCCCN get here?
Response: Yes

Prompt: Just curious, what result did CC(C)OCc1cccc2ccnc(COC(C)C)c12 get here?
Response: No

Prompt: Just curious, what result did Cn1cc(NC(=O)c2cc(NC(=O)CCCCCCC(=O)Nc3cc(C(=O)Nc4cc(C(=O)NCCC(=N)N)n(C)c4)n(C)c3)cn2C)cc1C(=O)NCCC(=N)N get here?
Response: Yes

Prompt: Just curious, what result did COc1ccc(C2Cc3cc(OC)ccc3C2=O)cc1 (centres undefined) get here?
Response: Yes

Prompt: Just curious, what result did CC(=O)c1ccc(Cl)c(N=Cc2cc(Br)ccc2O)c1 get here?
Response: Yes

Prompt: Just curious, what result did O=[N+]([O-])/C(C(Cl)=C(Cl)Cl)=C(/Sc1ccccc1)N1CCCCC1 get here?
Response: Yes

Prompt: Just curious, what result did CN=c1ss/c(=N\C(=S)N(C)C)n1-c1ccccc1 get here?
Response: No

Prompt: Just curious, what result did C1CCC(CC[N+]23CC[N+](CCC4CCCC4)(CC2)C3)C1 get here?
Response: Yes

Prompt: Just curious, what result did Cc1cc(C)nc(CCSS(=O)(=O)O)c1 get here?
Response: No

Prompt: Just curious, what result did C/C(=N\NC(=S)N1CCC(O)CC1)c1ccccn1 get here?
Response: Yes

Prompt: Just curious, what result did Cc1ccc(NC(=O)/C(CC(=O)c2sc(Nc3ccc(Cl)c(Cl)c3)nc2C)=N\Nc2ccc([N+](=O)[O-])cc2[N+](=O)[O-])c(C)c1 get here?
Response: Yes

Prompt: Just curious, what result did NC(Cc1ccnnc1)C(=O)O (centres undefined) get here?
Response: No

Prompt: Just curious, what result did Cc1cc(C(=O)c2ccccc2)ccc1O get here?
Response: No

Prompt: Just curious, what result did COC(=O)/C(Br)=C(\Br)c1ccccc1 get here?
Response: No

Prompt: Just curious, what result did N#CC1=C(N)OC(c2ccccc2)=C(C#N)C1c1ccccc1 (centres undefined) get here?
Response: Yes

Prompt: Just curious, what result did COc1ccc2c(c1)[n+]([O-])c(S(=O)(=O)c1ccc(C)cc1)c(N)[n+]2[O-] get here?
Response: Yes

Prompt: Just curious, what result did Cc1ccc(N=Nc2c(C)c(C#N)c(=S)n(C3OC(CO)C(O)C(O)C3O)c2-c2ccccc2)cc1 (centres undefined) get here?
Response: No

Prompt: Just curious, what result did COc1cccc2c1C(=O)c1c(O)c3c(c(O)c1C2=O)C[C@@](O)(/C(C)=N/NC(=O)c1ccc(Cl)c(Cl)c1)C[C@@H]3OC1CC(N)C(O)C(C)O1 (some centres undefined) get here?
Response: Yes

Prompt: Just curious, what result did O=C1C=CC(=O)N1c1ccc(Cl)cc1Br get here?
Response: Yes

Prompt: Just curious, what result did Nc1ccc2c(c1)S(=O)(=O)c1cc(O)ccc1O2 get here?
Response: No

Prompt: Just curious, what result did BrC1=CC(Br)=C2N=C(C(Br)(Br)Br)N=C3N=C(C(Br)(Br)Br)N=C1N32 get here?
Response: Yes

Prompt: Just curious, what result did COc1ccc(C(=O)Cn2c(C(C)=O)nc3ccccc32)cc1 get here?
Response: Yes

Prompt: Just curious, what result did O=C(O)CCC/C(=N\Nc1ccccc1)C(=O)O get here?
Response: Yes

Prompt: Just curious, what result did COc1ccc2c(C#N)cc3c(c[n+](C)c4ccccc34)c2c1 get here?
Response: Yes

Prompt: Just curious, what result did CCCCCCC(C)S(=O)(=O)c1ccc(C)cc1 (centres undefined) get here?
Response: Yes

Prompt: Just curious, what result did O=c1cc(-c2ccccc2)oc(-c2ccccc2)c1 get here?
Response: No

Prompt: Just curious, what result did C/C(CCC(=O)O)=N/Nc1ccc(C(=O)O)cc1 get here?
Response: No

Prompt: Just curious, what result did Cn1c(=O)c2c(nnc(-c3ccccc3)[n+]2[O-])n(C)c1=O get here?
Response: Yes

Prompt: Just curious, what result did C[C@]12CC[C@@H]3c4cc(OCC(F)(F)F)c(O)cc4CC[C@H]3[C@@H]1CC[C@@H]2O get here?
Response: Yes

Prompt: Just curious, what result did N#CC1=C(N)OC(c2ccccc2)=C(C#N)C1c1ccccc1[N+](=O)[O-] (centres undefined) get here?
Response: No

Prompt: Just curious, what result did O=C(O)c1cc2c(cc1CC(Cc1ccc3c(c1)CCCC3)C(=O)O)CCCC2 (centres undefined) get here?
Response: Yes

Prompt: Just curious, what result did COC1CCCCC1C(=O)C(C#N)C1CCCCC1C1CCCCC1 (centres undefined) get here?
Response: No

Prompt: Just curious, what result did Nc1cc(F)c(F)cc1Sc1cc(F)c(F)cc1N get here?
Response: Yes

Prompt: Just curious, what result did C=CCNC(=O)c1ccccc1C(=O)O get here?
Response: No

Prompt: Just curious, what result did N#Cc1cc2c(cc1Cl)Sc1nccn1S2(=O)=O get here?
Response: No

Prompt: Just curious, what result did O=C1C(c2ccccc2)CS(=O)(=O)CC1c1ccccc1 (centres undefined) get here?
Response: No
